biological target: USP7 (Homo sapiens, UniProt Q93009, C315A); construct: 0.25 nM His-His-USP7 (aa208-560, |C315A|) was incubated with compound; His-His (N); test: Inhibition of USP7 by Fluorescence Intensity (FLINT) readings, Ubiquitin-Rhodamine-110 substrate; type: biochemical; conditions: 0.25 nM His-His-USP7 (aa208-560), 60 minutes at 30° C. preincubation; Ki determined from IC50 according to Cer et al.
Sequence (Q93009 208-560 C315A): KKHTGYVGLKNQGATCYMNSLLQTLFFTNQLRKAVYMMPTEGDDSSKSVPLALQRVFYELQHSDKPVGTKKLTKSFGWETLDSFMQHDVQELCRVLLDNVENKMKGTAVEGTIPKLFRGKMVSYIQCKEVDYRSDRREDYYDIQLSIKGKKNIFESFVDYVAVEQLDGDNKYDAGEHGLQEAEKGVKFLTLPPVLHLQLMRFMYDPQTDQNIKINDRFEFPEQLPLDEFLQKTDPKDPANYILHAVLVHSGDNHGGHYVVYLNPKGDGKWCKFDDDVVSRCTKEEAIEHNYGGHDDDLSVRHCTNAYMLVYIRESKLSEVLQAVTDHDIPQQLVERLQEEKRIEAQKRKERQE
Structures can show the parent of a compound that is named as a salt.
Mark YES for Ki under 10 nM, NO if at or over.

input: Does this molecule meet the criterion Ki < 10 nM? Nc1c(Oc2ccc(F)cc2)ncn(CC2(O)CCN(C(=O)[C@@H]3CCN(C(=O)C(F)(F)c4ccccc4)C[C@H]3c3ccccc3)CC2)c1=O [Example 75]
output: NO

input: Does this molecule meet the criterion Ki < 10 nM? Cc1cc(Cl)cc(C(=O)N2CC[C@@H](C(=O)N3CCC(O)(Cn4cnc(Oc5ccc(F)cc5)c(N)c4=O)CC3)[C@H](c3ccccc3)C2)c1 [Example 162]
output: NO

input: Does this molecule meet the criterion Ki < 10 nM? Cc1ccc(-c2nc(C)c(C(=O)N3CC[C@@H](C(=O)N4CCC(O)(Cn5cnc(Oc6cccc(OC(F)(F)F)c6)c(N)c5=O)CC4)[C@H](c4ccccc4)C3)s2)cn1 [Example 27]
output: YES

input: Does this molecule meet the criterion Ki < 10 nM? Cc1nc(C2CCCN(C)C2)sc1C(=O)N1CC[C@@H](C(=O)N2CCC(O)(Cn3cnc(Oc4ccc(F)cc4)c(N)c3=O)CC2)[C@H](c2ccccc2)C1 (stereo partly drawn) [Example 199]
output: YES

input: Does this molecule meet the criterion Ki < 10 nM? Nc1c(Oc2cccnc2)ncn(CC2(O)CCN(C(=O)[C@@H]3CCNC[C@H]3c3ccccc3)CC2)c1=O [Example 151, hydrochloride]
output: NO
